- targetDesc: glucosylceramide synthase (Homo sapiens)
- Construct: made in house; host or cells: Expi293F cells (transient expression, pcDNA3.3-TOPO vector); microsome fraction used as enzyme source
- Sequence (Q16739 whole entry): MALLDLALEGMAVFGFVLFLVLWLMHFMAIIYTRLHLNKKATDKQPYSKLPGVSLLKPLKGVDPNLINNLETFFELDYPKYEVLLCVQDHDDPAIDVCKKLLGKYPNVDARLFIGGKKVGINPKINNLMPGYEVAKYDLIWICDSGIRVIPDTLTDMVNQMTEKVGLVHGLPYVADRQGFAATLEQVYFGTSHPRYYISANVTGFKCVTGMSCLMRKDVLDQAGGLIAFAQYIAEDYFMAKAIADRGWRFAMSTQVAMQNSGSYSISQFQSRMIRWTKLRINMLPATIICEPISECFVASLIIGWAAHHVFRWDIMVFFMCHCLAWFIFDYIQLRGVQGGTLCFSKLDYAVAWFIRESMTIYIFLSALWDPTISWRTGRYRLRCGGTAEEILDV
- assayOverview: Glucosylceramide synthase (GCS) enzyme assay, microsome fraction, C8 glucosylceramide quantified by Rapidfire MS/MS
- Format: biochemical
- testParameters: test compound 10 μM; 1.7 μM UDP-glucose, 3 μM C8 ceramide; room temperature 60 min; read-out: GCS enzyme inhibitory rate at 10 μM (%) (% of control)
observable: inhibition at 10 µM (%)
Answers are plain numbers, in %.

Worked cases, inhibition at 10 µM given:
CC(C)(O)Cc1ccc(N2Cc3c(ccnc3-c3ccccc3OCC(F)(F)F)C2=O)cc1	99
CC(C)(O)c1cc2c(c(-c3ccccc3OCC(F)F)n1)CN(c1ccc(OC(F)F)cc1)C2=O	100
COc1cc(F)ccc1-c1cncc2c1CN(c1ccc(F)cc1)C2=O	72
N#CC1(c2ccc(N3Cc4c(ccnc4-c4ccccc4OCC(F)F)C3=O)cc2)CC1	99
O=C(c1ccc(-c2nccc3c2CN(c2ccc(OC(F)F)cc2)C3=O)c(OC(F)F)c1)N1CCC1	98

Working through the 3 compounds below one at a time, give inhibition at 10 µM for each.
1. O=C1c2ccc(=O)n(-c3ccc(F)cc3OCC(F)(F)F)c2CN1c1ccc(OC(F)F)cn1
2. O=C1c2ccnc(-c3ccccc3OCC(F)(F)F)c2CN1c1cnn(CC2(F)CC2)c1
3. CC(C)(O)c1ccc(N2Cc3c(ccnc3-c3ccncc3OCC(F)(F)F)C2=O)nc1

1. 99
2. 99
3. 94
